All figures here come from PubChem BioAssay.

- TEST_NAME: growth suppression of PTEN-deleted HCT116, pilot screen, cell-based, HCT116 clonal line, CellTiter-Glo (AID 824);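 also: 0% = 20 µM Hyamine control and 100% = vehicle cell control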
- STATED_CONDITIONS: 60 h, at 10 µM, hits give low values
Records with an inconclusive call do not appear.
# maps each entry to its viability
// note: answer is a bare numeric in %

Some molecules with recorded viability:
# query: viability of entry NC(=O)C1CCN(C(=O)C2CCN(S(=O)(=O)c3ccccc3)CC2)CC1
105

# query: viability of entry COc1cc(C2CC(=O)C=C(O)C2)cc(OC)c1OC (centres undefined)
99

# query: viability of entry CC(=O)NCCOC(=O)Nc1ccncc1
99.1

# query: viability of entry c1cn(CCCNc2ncnc3nc[nH]c23)cn1
96.2

# query: viability of entry COC(=O)c1ccc(NS(=O)(=O)c2ccc3c(c2)oc(=O)n3C)cc1
96.4

# query: viability of entry Cc1cc2ccccc2c(=O)n1CC(=O)NCC(=O)N(C)Cc1ccccc1
98.6

# query: viability of entry Cc1c(NC2=C(Cl)C(=O)N(c3ccccc3)C2=O)c(=O)n(-c2ccccc2)n1C
94.4

# query: viability of entry O=C(NCc1ccco1)C1CCN(c2nnc(-n3cccc3)s2)CC1
95.8

Others:
# query: viability of entry CCOc1cccc(OCCOCCN(C)Cc2ccccc2)c1
78.9

###

# maps each entry to its differential viability (reversal)
- TEST_NAME: reversal of MRP1-mediated doxorubicin resistance, pilot screen, H69AR cells, doxorubicin co-treatment (AID 601)
- STATED_CONDITIONS: H69AR cells + 2 uM doxorubicin, CellTiter-Glo, 72 h; at 10 µM; hits give high values
// note: answer is a bare numeric in %

Some compounds with recorded differential viability (reversal):
# query: differential viability (reversal) of entry COc1ccccc1N1C(=O)c2ccccc2NC1c1ccncc1 (stereo not given)
9.81

# query: differential viability (reversal) of entry COC(=O)c1c(C)oc2ccc(NS(=O)(=O)c3cccs3)cc12
-21.9

# query: differential viability (reversal) of entry Cc1onc(-c2ccccc2)c1C(N)=O
13.8

# query: differential viability (reversal) of entry O=C(Cn1ncc2c(=O)oc3ccccc3c21)NCC1CCCO1 (stereo not given)
-7.15

# query: differential viability (reversal) of entry O=C(CCN1C(=O)COc2ccccc21)N1CCN(c2ccccn2)CC1
27.7

# query: differential viability (reversal) of entry CCOc1ccccc1NC(=O)N1C2CCCC1CC(NC(=O)C1CC1)C2 (stereo not given)
6.77

Others:
# query: differential viability (reversal) of entry CN(C)c1ccc(CNCCC2(O)CCOC(C)(C)C2)cc1 (stereo not given)
7.18

# query: differential viability (reversal) of entry CCOc1cc(C(=O)NCc2nnc(SCC(=O)OC)n2C)cc(OCC)c1OCC
8.31

# query: differential viability (reversal) of entry Cc1onc(-c2ccccc2Cl)c1C(=O)Nc1cccc(-c2cn3cccnc3n2)c1
1.15

# query: differential viability (reversal) of entry Cc1cccc(C)c1NC(=O)CC(NCc1ccco1)C(=O)O (stereo not given)
13.5

# query: differential viability (reversal) of entry Cc1nnc2sc(-c3cccc(NC(=O)c4cccnc4)c3)nn12
-8.91

###

- TEST_NAME: RAM signaling pathway blockade in yeast – S. cerevisiae, Pdr1DBD-CYC8 efflux-inhibited sensitized strain, primary screen (AID 1298);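 also: 0% = DMSO untreated cells without growth and 100% = 10 µM 1-NA-PP1 full growth; higher means more yeast growth rescued from 5-FOA killing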
- STATED_CONDITIONS: S. cerevisiae cbk1-as DSE1-URA3 strain, 5-FOA growth OD615, 2 d; at 50 µM; hits give high values
RESULT_TYPE: RAM network inhibition (%)
// note: answer is a bare numeric in %

Some molecules with recorded RAM network inhibition:
# query: RAM network inhibition of entry Cn1c(CSc2nc3ccc(Br)cc3[nH]2)nc2ccccc21
9.55

# query: RAM network inhibition of entry COc1cc(C2CC(=O)N3CN(Cc4ccco4)CSC3=C2C#N)ccc1OCc1ccccc1 (configuration not stated)
2.55

# query: RAM network inhibition of entry O=C(Nc1ccc(S(=O)(=O)N2CCOCC2)cc1)c1ccc(Cl)cc1
3.83

# query: RAM network inhibition of entry CC1CCN(CC(O)COc2cccc(F)c2)CC1 (configuration not stated)
0.62

# query: RAM network inhibition of entry Cc1ccnc(Sc2nc3c(c(=O)[nH]c(=O)n3C)n2CCCc2ccccc2)n1
1.4

# query: RAM network inhibition of entry CCc1noc2c1/C(=N\O)CC(c1ccccc1)C2 (configuration not stated)
-1.18

# query: RAM network inhibition of entry O=S(=O)(NCCc1csc(-c2cccnc2)n1)c1ccc2c(c1)OCCO2
-0.63

# query: RAM network inhibition of entry O=C(NCCO)c1ccc2[nH]c3c(c2c1)CCCC3
4.19

# query: RAM network inhibition of entry COc1cc(C2=Nc3c(c(C)nn3-c3ccccc3)P(=O)(N3CCOCC3)O2)cc(OC)c1OC (configuration not stated)
2.86

# query: RAM network inhibition of entry OC(COCc1cccs1)CN1CCN(c2ccccn2)CC1 (configuration not stated)
4.89

Others:
# query: RAM network inhibition of entry c1coc(CNc2nc3sc4c(c3c3ncnn23)CCCC4)c1
3.48

# query: RAM network inhibition of entry CCOc1ccc(Cn2nnc(C(=O)NCCc3ccccc3)c2N)cc1
4.53
